- System: SK-OV-3
- procedure.summary: NCI tumour cell line growth inhibition, 48 h
Calls of active or inactive are those of the source. No stated cut-off is given here; in the data, active = GI50 up to about 1.1 µM and inactive = higher.
measured.attribute: GI50

[
  {
    "compound": "NC(=S)N/N=C1/C(=O)N(c2ccc(Cl)cc2Cl)C(=O)C(=O)C1c1nc2ccccc2s1 (stereo not given)",
    "GI50": "> 100 µM (inactive)"
  },
  {
    "compound": "C#C[C@]1(O)CC[C@H]2[C@@H]3CCc4cc(O)ccc4[C@H]3CC[C@@]21C [ETHINYL ESTRADIOL]",
    "GI50": "24.4 µM (inactive)"
  },
  {
    "compound": "CCOC(=O)c1c2ccc(/C=C/C(=O)OC)ccc-2c(C(=O)OCC)c1N",
    "GI50": "> 100 µM (inactive)"
  },
  {
    "compound": "O=c1nc(N2CCN(c3ccccc3)CC2)ccn1C1OC(CO)C(O)C1O (stereo not given)",
    "GI50": "> 100 µM (inactive)"
  },
  {
    "compound": "N#CC(NNC(=O)c1c(Cl)c(Cl)c(Cl)c(Cl)c1-c1nc2cc(C(=O)c3ccccc3)ccc2[nH]1)c1cccc(Oc2ccccc2)c1 (stereo not given)",
    "GI50": "33.8 µM (inactive)"
  }
]

# return GI50 for each item in the list
1. O=C1C(=O)N(C(=O)c2ccc(Cl)c(Cl)c2)c2ccc(Cl)cc21
2. COc1cc(Cl)cc(N(O)C(C)=O)c1OCc1ccccc1
3. N#C/C(=C\c1ccc(O)c(O)c1)C(N)=O
4. NC(=O)c1cccc(/N=c2\oc3ccc(Br)cc3cc2-c2nc3ccccc3[nH]2)c1
5. COc1cccc(NC(=O)CC(=O)N2NC(C)C(/N=N/c3cccc(C(=O)O)c3)C2=O)c1 (stereo not given)

result:
1: > 100 µM (inactive); 2: 74 µM (inactive); 3: 71.4 µM (inactive); 4: 16.4 µM (inactive); 5: > 100 µM (inactive)

# return GI50 for each item in the list
1. c1cncc(C2c3[nH]c4ccccc4c3CCN2CCCN2CCCCC2)c1 (stereo not given)
2. COc1ccc(/C=C(/C(=O)O)c2cc(OC)c(OC)c(OC)c2)cc1

result:
["> 100 µM (inactive)", "> 100 µM (inactive)"]

# return GI50 for each item in the list
1. COc1cccc(C2CC(C)(O)Oc3cc4c(cc32)OCO4)c1O (stereo not given)
2. C=CCN1C(=O)/C(=C/c2ccccc2)N=C1SC1OC(COC(=O)c2ccccc2)C(OC(=O)c2ccccc2)C1OC(=O)c1ccccc1 (stereo not given)

result:
["28.5 µM (inactive)", "> 100 µM (inactive)"]

# return GI50 for each item in the list
1. CC1(C)C(=O)N(O)C(C)(C)N1O
2. COc1ccc(-n2cnc3c(NC(Cc4ccccc4)C(=O)O)ncnc32)cc1 (stereo not given)

result:
1. > 10 µM (inactive)
2. > 100 µM (inactive)
